assay: in vivo; settings: male, Plasma Concentration, Single Dose (0 hr), time 1.0 hr
observed-property: concentration at 1 h (µM)
Kindly provide the numeric value in µM only, without the unit symbol.

Which concentration at 1 h value belongs to CCCCN1CCC(N(Cc2ccccc2)C(=O)Nc2ccc(Cl)c(Cl)c2)CC1 [A7] ? 3.7

###

biological target: DCN1-UBC12 interaction (Homo sapiens (Human), UniProt Q96GG9); assay: biochemical; type: binding; conditions: read-out: TR-FRET IC50
Sequence (Q96GG9 60-248 limits assumed): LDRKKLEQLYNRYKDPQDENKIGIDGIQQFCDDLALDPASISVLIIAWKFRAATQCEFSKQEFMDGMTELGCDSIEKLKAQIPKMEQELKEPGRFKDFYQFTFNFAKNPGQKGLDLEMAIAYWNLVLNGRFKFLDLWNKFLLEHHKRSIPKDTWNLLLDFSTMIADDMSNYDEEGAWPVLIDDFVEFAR
observed-property: IC50 (µM)
Quick note: give the figure in µM, leave out the unit.

IC50 for CC(=O)N1CCC(N(Cc2ccco2)C(=O)Nc2ccc(Br)c(C)c2)CC1 ? 64.1

# lookup: IC50 of CCCC(C)N1CCC(N(Cc2ccccc2)C(=O)Nc2cccc(OC(C)C)c2)CC1 (stereo not drawn) 3.17

What value of IC50 has been reported for the following compound? CCCN1CCC(N(CCC(C)C)C(=O)Nc2cccc(C(F)(F)F)c2)CC1 2.96

Form field: reported IC50 of COc1cc(CN2CCC(NC(=O)Nc3cccc(C)c3)CC2)cc(OC)c1OC 29.3

May I ask what IC50 has been recorded for CCCCN1C(C)(C)CC(N(Cc2ccccc2)C(=O)Nc2cccc(C(F)(F)F)c2)CC1(C)C ? 34.3

Any idea what IC50 was measured for CCCC(C)N1CCC(N(Cc2ccccc2CNC(=O)CCl)C(=O)Nc2cccc(C(F)(F)F)c2)CC1 (stereo not drawn) [A24] ? 0.154

###

biological target: DCN1-UBC12 interaction (Homo sapiens (Human)); test: biochemical; assay type: binding; conditions: read-out: TR-FRET IC50
observed-property: IC50 (µM)
Write down the numeric answer in µM and omit the unit.

# lookup: IC50 of C=CS(=O)(=O)NCc1cccc(CN(C(=O)Nc2cccc(C(F)(F)F)c2)C2CCN(C(C)CCC)CC2)c1 (stereo not drawn) [A1] 0.0043

Which value of IC50 has been reported for CCCCN1CCC(N(Cc2ccccc2)C(=O)Nc2cccc(F)c2)CC1 [A136] in the records? 3.57

Report IC50 for O=C(Nc1cccc(C(F)(F)F)c1)NC1CCN(Cc2ccc(F)cc2)CC1 [A172] please. 12.9

Fill blank: measured IC50 of the compound CCCCN1CCC(N(Cc2ccccc2)C(=O)Nc2ccc(C)c(Cl)c2)CC1 [A28] is ____. 0.166

###

target: DCN1-UBC12 interaction (Homo sapiens (Human), UniProt Q96GG9); assay: biochemical; format: binding; details: Table 6, commercial compounds; read-out: TR-FRET IC50
Field: IC50. Provide a value for each of the molecules that follow.

// query IC50 value for entry Cc1c(C(=O)NCC(C)(C)CN(C)C)cnn1-c1nccc(-c2cccs2)n1 [E47] > 67.6 µM

Param item = COCCN1CCN(C(=O)c2cnn(-c3nccc(-c4cccs4)n3)c2C(C)C)CC1 [E17] ; retrieve measured IC50. 34.4 µM

IC50 for CN(C)CC(C)(C)CNC(=O)c1cnn(-c2nccc(-c3cccs3)n2)c1C1CC1 [E37] ? > 67.6 µM

What value of IC50 has been reported for the following molecule? COCCN1CCN(C(=O)c2cnn(-c3nccc(-c4cccs4)n3)c2C2CC2)CC1 [E13] 28.8 µM

IC50 for CN1CCN(C(=O)c2cnn(-c3nccc(-c4cccs4)n3)c2C2CC2)CC1 [E33] ? > 67.6 µM

Fill in the blank: the reported IC50 of CCN(CC)C(=O)c1cnn(-c2ncc(C)c(-c3cccs3)n2)c1C1CC1 [E26] is ____. 65.2 µM

Could you share which IC50 value was measured for CCN1CCN(C(=O)c2cnn(-c3nccc(-c4cccs4)n3)c2C2CC2)CC1 [E14] ? 29.9 µM

Consider the molecule Cc1cnc(-n2ncc(C(=O)N3CCN(C(C)C)CC3)c2C)nc1-c1cccs1 [E35] and give its measured IC50. > 67.6 µM

Recorded IC50 for COCCN1CCN(C(=O)c2cnn(-c3ncc(C)c(-c4cccs4)n3)c2C)CC1 [E32] , please? > 67.6 µM

###

molecular target: DCN1-UBC12 interaction (Homo sapiens (Human), UniProt Q96GG9); assay: biochemical; format: binding; conditions: read-out: TR-FRET IC50
pIC50: −log10 of the molar value.
observed-property: pIC50

Reported pIC50 for O=C(Nc1ccc(C(=O)N2CCCC2)cc1)Nc1cccc(C(F)(F)F)c1 : what is it? < 4.13

So what does the record say about pIC50 for C=CS(=O)(=O)NCc1ccccc1CN(C(=O)Nc1cccc(C(F)(F)F)c1)C1CCN(C(C)CCC)CC1 (stereo not shown) [drawing 850] ? > 8.00

pIC50 for CCCC(C)N1CCC(N(Cc2ccccc2)C(=O)Nc2c(OC)cccc2OC)CC1 (stereo not shown) ? < 4.07

# get_value(readout='pIC50', item= C=CC(=O)Nc1cccc(CN(C(=O)Nc2cccc(C(F)(F)F)c2)C2CCN(C(C)CCC)CC2)c1 (stereo not shown) [A18] ) 6.96

Item under review: O=C(c1ccc(F)cc1F)N1CCC(c2nc3ccccc3s2)CC1 . Reported pIC50? 4.51

Param item = CCCC(C)N1CCC(N(Cc2ccccc2)C(=O)Nc2cc(Cl)ccc2F)CC1 (stereo not shown) ; retrieve measured pIC50. 5.11

Consider the compound shown here: Cc1ccc(CN(C(=O)Nc2ccccc2F)C2CCN(Cc3ccccc3)CC2)o1 What is its recorded pIC50? < 4.17

Given the entry CCCC(C)N1CCC(N(Cc2ccccc2)C(=O)Nc2ccc(Cl)cc2F)CC1 (stereo not shown) , report its measured pIC50. 5.93

# lookup: pIC50 of O=C(Nc1ccc(CN2CCCCC2)cc1)Nc1cc(C(F)(F)F)ccc1Cl < 4.30

# get_value(readout='pIC50', item= Cc1ccc(CN(C(=O)Nc2ccccc2Br)C2CCN(Cc3ccccc3)CC2)o1 ) < 4.17

pIC50 for CC(C)C(C)N1CCC(N(Cc2ccccc2)C(=O)Nc2cc(F)cc(C(F)(F)F)c2)CC1 (stereo not shown) ? 5.95

Form field: reported pIC50 of O=C(Nc1cccc(C(F)(F)F)c1)N1CCN(Cc2cccnc2)CC1 < 4.13

State the recorded pIC50 for this entry: COc1ccccc1N1CCN(CC(=O)Nc2cccc(C(F)(F)F)c2)CC1 < 4.14

# pIC50 lookup, item O=C(Nc1cc(F)cc(C(F)(F)F)c1)N(Cc1ccccc1)C1CCN(Cc2ccncc2)CC1 < 4.55

State the recorded pIC50 for this entry: CCCC(C)N1CCC(N(Cc2ccccc2)C(=O)Nc2ccc3c(c2)CCC3)CC1 (stereo not shown) 7.12

// lookup pIC50 for CCCC(C)N1CCC(N(Cc2ccccc2)C(=O)Nc2c(C)cccc2C)CC1 (stereo not shown) < 4.20

Look up pIC50 for this compound: CCCC(C)N1CCC(N(Cc2cccnc2)C(=O)Nc2cc(F)cc(C(F)(F)F)c2)CC1 (stereo not shown) 6.67

Quick one: pIC50 of CCCC(C)N1CCC(N(Cc2ccccc2)C(=O)Nc2ccc(F)cc2)CC1 (stereo not shown) ? < 4.17

What does the record list as pIC50 for COc1ccc(C(=O)N2CCC(NCc3ccc(C)cc3)CC2)cc1 ? < 4.99

###

molecular target: DCN1-UBC12 interaction (Homo sapiens (Human)); experiment: biochemical; type: binding; settings: read-out: TR-FRET IC50
observed-property: pIC50
Bear in mind: pIC50 is minus log10 of a mol/L concentration; give just that figure.

Form field: reported pIC50 of CCCC(C)N1CCC(N(Cc2ccccc2CNC(=O)CCl)C(=O)Nc2cccc(C(F)(F)F)c2)CC1 (stereo not drawn) [drawing 848] 6.81

Given the compound CCCC(C)N1CCC(N(Cc2ccccc2)C(=O)Nc2ccc(C)c(C)c2)CC1 (stereo not drawn) , what is its reported pIC50? 6.74

Which pIC50 is listed for CCCCN1CCC(N(Cc2ccccc2)C(=O)Nc2cccc(C(F)(F)F)c2F)CC1 ? 6.23

Entry CCCC(C)N1CCC(N(Cc2ccccc2)C(=O)Nc2ccc(Cl)c([N+](=O)[O-])c2)CC1 (stereo not drawn) : reported pIC50 = ? 7.09

###

For each record, write down the corresponding IC50.
molecular target: DCN1-UBC12 interaction (Homo sapiens (Human), UniProt Q96GG9); assay: biochemical; type: binding; settings: read-out: TR-FRET IC50

I am curious: what IC50 value has been reported for CCCC(C)N1CCC(N(CCCNC(=O)CCl)C(=O)Nc2cccc(C(F)(F)F)c2)CC1 (centres unmarked) [drawing 836] ? > 53000 nM

Entry O=C(c1ccc(Br)cc1)N1CCCC(c2nc3ccccc3s2)C1 (centres unmarked) has what IC50? > 67600 nM

Give its IC50 value. Item: CCCC(C)N1CCC(N(Cc2ccccc2)C(=O)Nc2ccccc2CC)CC1 (centres unmarked) > 67300 nM

Could you tell me which IC50 is on file for O=C(Nc1cc(F)cc(C(F)(F)F)c1)N(Cc1ccccc1)C1CCN(Cc2nc3ccccc3s2)CC1 ? > 25200 nM

Returns the measured IC50 for the input compound. Input: C=CS(=O)(=O)NCc1ccccc1CN(C(=O)Nc1cccc(C(F)(F)F)c1)C1CCN(C(C)CCC)CC1 (centres unmarked) [A2] 6.8 nM

What value of IC50 has been reported for the following compound? CCCC(C)N1CCC(N(Cc2ccccc2)C(=O)Nc2ccc(Cl)c(Cl)c2)CC1 (centres unmarked) 257 nM

Return reported IC50; argument: CCCC(C)N1CCC(N(Cc2ccccc2)C(=O)Nc2ccc(SC(F)(F)F)cc2)CC1 (centres unmarked) 85.3 nM

// IC50 lookup, key: O=C(Nc1ccccc1)NC1CCN(Cc2ccccc2)CC1 < 4.1 nM
